Test system: KM12 colon
Assay: NCI tumour cell line growth inhibition, 48 h; in the data active = GI50 below about 0.43 µM; inactive = the rest
Outcome codes: active, inactive

>  <MOLECULE>
COc1cc(C2C=C(c3cccc(NC(C)=O)c3)Nc3ncnn32)cc(OC)c1OC (stereo not given)

>  <CLASS>
active

$$$$
>  <MOLECULE>
ClCc1cccc(Cn2cnc3c(Cl)ncnc32)c1

>  <CLASS>
inactive

$$$$
>  <MOLECULE>
CCOc1cc2ncc(C#N)c(Nc3ccc(OCc4cccc(F)c4)c(Cl)c3)c2cc1NC(=O)CC1CCSS1 (stereo not given)

>  <CLASS>
inactive

$$$$
>  <MOLECULE>
O=C1NCc2ccc3c(-c4cccc(Cl)c4)c[nH]c3c21

>  <CLASS>
active

$$$$
>  <MOLECULE>
Cc1c2c(nn1-c1ccc(S(=O)(=O)NC(=S)Nc3ccccc3)cc1)-c1ccccc1CC2

>  <CLASS>
inactive

$$$$
>  <MOLECULE>
COc1cc2c(cc1OC)C(=O)/C(=C/c1cccc(OCC(=O)c3ccccc3)c1)C2

>  <CLASS>
inactive

$$$$
>  <MOLECULE>
COc1nc(N(C)O)nc(N(C)O)n1

>  <CLASS>
inactive

$$$$
>  <MOLECULE>
Cc1ccc(-[n+]2c3cc(N)c(C)cc3nc3cc(C)c(Nc4ccccc4)cc32)cc1

>  <CLASS>
active

$$$$
>  <MOLECULE>
C=C1CC2(OC1=O)C(=O)N(CCCCCCCN1C(=O)C3(CC(=C)C(=O)O3)c3ccccc31)c1ccccc12 (stereo not given)

>  <CLASS>
inactive

$$$$
>  <MOLECULE>
Cc1ccc2[nH]cc(-c3nc(-c4c[nH]c5ncccc45)cs3)c2c1

>  <CLASS>
inactive

$$$$
